Numbers sourced from patent US20220002395A1.

What pKd was measured for each of the following?
Target: T1, Plasmodium falciparum histidine-rich protein II (HRP-II) (Plasmodium falciparum, UniProt P05227 22-332)
T1 construct: Coating antigen of all ELISAs; also called HRP-II protein; MA-HRPII Ag protein
T1 sequence (looked up): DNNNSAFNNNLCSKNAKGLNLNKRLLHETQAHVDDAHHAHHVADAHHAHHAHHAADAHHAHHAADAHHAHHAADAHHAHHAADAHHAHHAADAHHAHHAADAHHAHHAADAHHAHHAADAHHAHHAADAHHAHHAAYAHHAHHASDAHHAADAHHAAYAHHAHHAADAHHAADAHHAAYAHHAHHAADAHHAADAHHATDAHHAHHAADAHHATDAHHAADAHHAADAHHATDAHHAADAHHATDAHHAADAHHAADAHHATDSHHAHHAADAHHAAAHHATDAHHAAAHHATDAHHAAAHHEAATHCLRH
Test: indirect ELISA, four antigen coating concentrations
Units for pKd: none; it is -log10 of a concentration expressed in mol/L.

Exercise: Reported pKd, binder Anti-HRP-II 3R5 monoclonal antibody (recombinant, expressed in CHO cells; WT) (antibody, mouse IgG2b, kappa, V domains shown, Mouse IgG; also called Anti-HRP-H3R5; CHO transient-transfected cell supernatant) VH: EVQLQQSGPEVVKPGASVKISCKASGSTLTEYYMNWVKQSHGKGLEWIGDLNPINGGTPYQQKFRDKATLTVDKSSNTAYMELRSLTSEDSALYYCTRGAEEYWGQGTTLTVSS VL: DVVLTQTPLSLSVTIGQPASISCKSSQSIIYSNGKIYINWFQQRPGQSPKRLMYQLSKIDPGIPDRFSGSGSETDFTLKISRVEAEDLGVYYCLQGTYSPNTFGGGTKLEIKR : ____
Key: 9.20

Exercise: Reported pKd, binder WT 1-1 (antibody, mouse IgG2b, kappa, V domains shown, WT as framework) VH: EVQLQQSGPEVVKPGASVKISCKASGYTITEYYMNWVKQSHGKGLEWIGDVNPINGGTPYQQKFRDKATLTVDKSSNTAYMELRSLTSEDSALYYCTKGAEEYWGQGTTLTVSS VL: DVVLTQTPLSLSVTIGQPASISCKSSQSLLYSNGKIYINWFQQRPGQSPKRLMYQISKIEPGIPDRFSGSGSETDFTLKISRVEAEDLGVYYCLQATYSPNTFGGGTKLEIKR : ____
Key: 9.28

Exercise: Reported pKd, binder WT 1-2 (antibody, mouse IgG2b, kappa, V domains shown, WT as framework) VH: EVQLQQSGPEVVKPGASVKISCKASGTTLTEYYMNWVKQSHGKGLEWIGDINPIQGGTPYNQKFRDKATLTVDKSSNTAYMELRSLTSEDSALYYCTRGAEEYWGQGTTLTVSS VL: DVVLTQTPLSLSVTIGQPASISCKSSQSILYSQGKIYINWFQQRPGQSPKRLMYQLSKIDPGIPDRFSGSGSETDFTLKISRVEAEDLGVYYCLQATYTPNTFGGGTKLEIKR : ____
Key: 10.07

Exercise: Reported pKd, binder WT 1-3 (antibody, mouse IgG2b, kappa, V domains shown, WT as framework) VH: EVQLQQSGPEVVKPGASVKISCKASGSTITEYYMNWVKQSHGKGLEWIGDLNPINGGTPYQQKFRDKATLTVDKSSNTAYMELRSLTSEDSALYYCTKGAEEYWGQGTTLTVSS VL: DVVLTQTPLSLSVTIGQPASISCKSSQSIIYSNGKIYINWFQQRPGQSPKRLMYQVSKIEPGIPDRFSGSGSETDFTLKISRVEAEDLGVYYCLQGTYYPNTFGGGTKLEIKR : ____
Key: 10.03
